Test system: SW-620 colon
Test: NCI-60 one-dose screen, 48 h (100 = growth as untreated, 0 = no growth, -100 = all killed)
Details: 10 µM unless noted
The panel holds about 83,000 compounds, 20% with a hit somewhere; the sample as a whole holds those more often.
Classify by measured growth: Yes if it is equal to or exceeds 20%, No if it is smaller.

Known results for compounds:
entry_smiles=CCc1c2c(nc3ccc(OCc4ccc(B5OC(C)(C)C(C)(C)O5)cc4)cc13)-c1cc3c(c(=O)n1C2)COC(=O)[C@]3(O)CC class_label=No
entry_smiles=COC(=O)N/N=C/c1c[n+]([O-])c2ccccc2[n+]1[O-] class_label=Yes
entry_smiles=COC1=CC(c2ccc[nH]2)=N/C1=C\c1[nH]c(C)c(C(=O)Oc2ccccc2)c1C class_label=No
entry_smiles=COC1=CC(=O)C(OC)=C(O)C1=O class_label=Yes

Task item: Threshold query (growth >= 20%) on O=C1/C(=C/c2ccccc2)CN(C(=O)C(Cl)Cl)C/C1=C\c1ccccc1
Reply: No

====

Tested on: MCF7 breast
Test: NCI-60 one-dose screen, 48 h
Details: 10 µM unless noted
The panel holds about 83,000 compounds, 20% with a hit somewhere; the sample as a whole holds those more often. Active and inactive are the calls of the source. The calls were made as follows: active = growth percent below 10; inactive = the rest.
Lab note: assign the record to one of t = active, f = inactive

compound=COc1ccc(-c2cc(-c3cccc(Cl)c3)c(C#N)c(=O)[nH]2)c(OC)c1 system_name="MCF7 breast" class_label=f
compound=COc1ccc(C(=O)N/N=C/c2ccc(O)cc2O)cc1Nc1ccnc(C(F)(F)F)c1 system_name="MCF7 breast" class_label=f
compound=CCN(CC)CCCN1C(=O)c2c(c(C)c3c(oc4cc(OC)ccc43)c2C)C1=O system_name="MCF7 breast" class_label=t

Task item: Look up the recorded call for NCCOCCOc1ccccc1 in this test.
Reply: f

Task item: Look up the recorded call for COc1cc(-c2nc3occn3c2-c2ccnc(NCCCNS(=O)(=O)c3ccc(O)cc3)n2)ccc1F in this test.
Reply: f

Task item: Look up the recorded call for CN1CCN(c2ccc(Nc3ncc(C(N)=O)c(NCCCNC(=O)C4CCC4)n3)cc2)CC1 in this test.
Reply: f

Task item: Look up the recorded call for O=C1OCC2=C1C(c1cccc(C(F)(F)F)c1)c1cc3c(cc1N2CCO)CCC3 (stereo not drawn) in this test.
Reply: f

Task item: Look up the recorded call for COc1ccc2c(c1)CC[C@@H]1[C@@H]2CC[C@]2(C)C3C(=CCC4C(=O)N(c5ccccc5)C(=O)C43)C[C@@H]12 (stereo partly drawn) in this test.
Reply: f

Task item: Look up the recorded call for COc1ccc(C(c2cc(OC)c(OC)c(OC)c2)n2ccnc2)cc1O (stereo not drawn) in this test.
Reply: f

Task item: Look up the recorded call for N#Cc1ccccc1OCC(=O)Nc1nc2c(s1)COc1ccccc1-2 in this test.
Reply: f

Task item: Look up the recorded call for CCN(C(=O)N1CCN(c2cc3c(cc2F)c(=O)c(C(=O)O)cn3C2CC2)CC1)c1nc(-c2ccccc2)cs1 in this test.
Reply: f

Task item: Look up the recorded call for COc1ccccc1/C=C1\COc2ccc(O)c(O)c2C1=O in this test.
Reply: f

Task item: Look up the recorded call for O=C(Cc1ccc(F)cc1)c1ccccc1 in this test.
Reply: f

Task item: Look up the recorded call for COc1ccc2c(c1)CCNC21C(=O)Nc2c(Br)cc(Br)cc21 (stereo not drawn) in this test.
Reply: f

Task item: Look up the recorded call for Clc1ccc(Nc2nc(Nc3ccc(Cl)cc3)nc(Nc3ccc(-c4cc(-c5cccc(Cl)c5)on4)cc3)n2)cc1 in this test.
Reply: f

Task item: Look up the recorded call for Cc1ccc(/C=C/c2c(C(=O)/C=C/c3ccccc3)c(C)nc3ccccc23)cc1 in this test.
Reply: f

Cited source: PubChem BioAssay (NCI)
